assay: solvent given as SMILES; settings: in ClCCl
readout: fluorescence lifetime (ns)

# example entries with known answers
[O-][n+]1c(-c2ccc(Br)cc2)cc(N2CCOCC2)nc1/C=C/c1ccccc1	3.7
COc1ccc(-c2c3cc4cc(C)sc4cc3c(C#Cc3ccccc3)c3cc4cc(C)sc4cc23)cc1	10.8
COc1cnc(-c2cc[n+](C3=C(F)C(F)(F)C(F)(F)[C-]3F)cc2)s1	2.81
FC(F)(F)c1cc2n(n1)[B-]1(c3ccccc3-c3ccccc31)[n+]1ccc3ccccc3c1-2	13.7
C[Si]1(C)c2ccc(C#Cc3ccccc3)cc2C=Cc2cc(C#Cc3ccccc3)ccc21	3.8

(I) Cn1c(=O)cc(C(=O)c2ccccc2)c2sc(-c3ccc(OC(F)(F)F)cc3)cc21
(II) CCN(CC)c1ccc2cc(C#N)/c(=N\C(=O)c3ccco3)oc2c1
Choose between I and II : whose measured fluorescence lifetime value is numerically larger? The response must carry the label of the picked entry. I
(I: 4.77 ns, II: 3 ns)

---

assay: solvent given as SMILES; settings: in C1CCCCC1
readout: fluorescence lifetime (ns)

# example entries with known answers
COC(=O)C(Cc1ccc2oc(-c3ccc(N(C)C)cc3)nc2c1)NC(=O)OC(C)(C)C (stereo unspecified)	1.02
O=S1c2ccccc2-c2cc(-c3c4ccccc4cc4ccccc34)ccc21 (stereo unspecified)	2.4
CC1=[N+]2C(=C(c3ccccc3)c3ccc(C)n3[B-]2(F)F)C=C1	1.94
C[Si](C)(C)c1cccc2c(C#N)cccc12	8
CN(C)c1ccc(-c2nc3cccnc3[nH]2)cc1	1.08
CC(=O)Nc1ccccc1C(=O)OC1CC(C)CCC1C(C)C (stereo unspecified)	4

(a) CC(C)[Si]1(C(C)C)c2ccccc2-c2ccc(N(C)C)cc21
(b) C[Si](C)(C)C#Cc1ccc2c3cccc4cccc(c5cccc1c52)c43
Choose between a and b : whose measured fluorescence lifetime value is numerically larger? The response must carry the label of the picked entry. a

---

test: solvent given as SMILES; details: in CCCCCC
readout: fluorescence lifetime (ns)

CCCCCCCCCCCCCCCCOc1cc(C#Cc2ccc3ccccc3c2)c(OCCCCCCCCCCCCCCCC)cc1C#Cc1ccc(C=C(C#N)C#N)cc1	1.97

(I) C/C=C/c1cc(OC)cc(OC)c1
(II) CC1=[N+]2C(=Cc3cccn3[B-]2(F)F)C=C1
(III) COc1ncccc1B(O)O
Order the records, beginning with the lowest fluorescence lifetime and ending with the highest. Answer by writing out the labels in the requested order. III, I, II
(III: 0.211 ns, I: 1.5 ns, II: 6.75 ns)

---

assay: solvent given as SMILES; settings: in CC#N
readout: fluorescence lifetime (ns)

CC1=N/C(=C\c2ccc(C#N)c(N(C)C)c2)C(=O)N1C	3.5
Cc1cc(=O)oc2c3c4c(cc12)CCCN4CCC3	3.3

(A) COc1ccc2nc3c(nc2c1)c(-c1ccccc1)nn3C
(B) c1ccc([C@]23CC[C@H](CC2)N=N3)cc1
Choose between A and B : whose measured fluorescence lifetime value is numerically larger? The response must carry the label of the picked entry. A
(A: 16.7 ns, B: 2.5 ns)

---

assay: solvent given as SMILES; conditions: in CC#N
readout: fluorescence lifetime (ns)

CC1=CC(/C=C/c2ccc([N+](C)(C)C)cc2)=[N+]2C1=C(c1ccc(C#CCO[C@@H]3O[C@H](CO)[C@@H](O)C(O)[C@H]3O)cc1)c1c(C)cc(/C=C/c3ccc([N+](C)(C)C)cc3)n1[B-]2(F)F (some centres undefined)	5.3

(a) CNc1cccc2c1C(=O)c1ccccc1-2
(b) COc1cc2cc(C#Cc3ccc(/C=C(\C#N)C(=O)O)cc3)c(=O)oc2cc1OC
(c) COC(=O)C(NC(=O)OC(C)(C)C)c1ccc2oc(-c3ccc(OC(=O)c4ccccc4)cc3OC(=O)c3ccccc3)nc2c1 (centres undefined)
(d) COc1cc2cc(/C=C/c3ccc(/C=C(\C#N)C(=O)O)cc3)c(=O)oc2cc1OC
(e) COc1cc(/C=C/C(=O)CC(=O)/C=C/c2ccc(O)c(OC)c2)ccc1O
Order the records, beginning with the lowest fluorescence lifetime and ending with the highest. Answer by writing out the labels in the requested order. c, e, b, d, a

(I) CC(O)CC1=N/C(=C\c2cccc(N(C)C)c2)C(=O)N1C (centres undefined)
(II) C=CC(=O)Oc1ccc2cc(C=C)c(=O)oc2c1
Choose between I and II : whose measured fluorescence lifetime value is numerically larger? The response must carry the label of the picked entry. I

---

assay: solvent given as SMILES; settings: in CCOC(C)=O
readout: fluorescence lifetime (ns)

N#Cc1ccc(/C=C2\OC(=O)c3cc(N)ccc32)cc1	0.75
O=[N+]([O-])c1ccc(F)cc1C1CC(c2cccc3ccccc23)=NN1c1ccccc1 (stereo not drawn)	3.67
Nc1ccc2c3c(cccc13)C(=O)c1ccccc1-2	7.1
Cc1cc(-c2ccccc2)nc2c1ccc1nc(-c3ccccc3)cn12	5.98
Cc1ccc(C2=C3C=CC(c4ccccc4)=[N+]3[B-](F)(F)n3c2ccc3-c2ccccc2)cc1	1.37
COc1cc(N(c2ccccc2)c2ccccc2)ccc1C=C(C#N)C#N	0.07

(1) COc1nc(Nc2ccc3cc4ccccc4cc3c2)nc(OC)n1
(2) N#Cc1coc2ccccc2c1=O
Choose between 1 and 2 : whose measured fluorescence lifetime value is numerically larger? The response must carry the label of the picked entry. 1

---

test: solvent given as SMILES; conditions: in CS(C)=O
readout: fluorescence lifetime (ns)

(1) CN(C)c1ccc(C(=O)c2ccccc2)cc1
(2) COc1ccccc1-c1c(-c2ccccc2O)nc(-c2ccc(C(F)(F)F)cc2)n1-c1ccc(C)cc1
Choose between 1 and 2 : whose measured fluorescence lifetime value is numerically larger? The response must carry the label of the picked entry. 2
(2: 2.2 ns, 1: 0.1 ns)

---

assay: solvent given as SMILES; conditions: in C1CCOC1
readout: fluorescence lifetime (ns)

# example entries with known answers
COc1ccc(-c2cc3c(cc2OC)-c2c(c4c(c5c2-c2cc(OC)c(-c6ccc(OC)cc6)cc2C5)C(=O)N(CCC(C)C)C4=O)C3)cc1	4.42
COc1c(-c2ccc(N(C)C)cc2)oc2ccccc2c1=O	2.05
CC(C)(C)c1ccc(C2=C(c3ccc(-n4c5ccccc5c5ccccc54)cc3)S(=O)(=O)c3c2sc(-c2ccc(-n4c5ccccc5c5ccccc54)cc2)c3-c2ccc(C(C)(C)C)cc2)cc1	0.47
CC1(C)Nc2cc(Cl)ccc2-c2[nH]c3ccccc3c(=O)c21	7.47
O=C1/C(=C2\Nc3cc4ccc5cccc6ccc(c3C2=O)c4c56)Nc2cc3ccc4cccc5ccc(c21)c3c45	0.42
CC(=O)c1ccc(-c2ccc3c(c2)C(=O)c2cc(-c4ccc(C(C)=O)cc4)ccc2-3)cc1	1.2
CCN(CC)c1ccc(-c2nc3c4ccccc4n(C)c3nc2-c2ccc(B(c3c(C)cc(C)cc3C)c3c(C)cc(C)cc3C)cc2)cc1	9.21
CSc1sc(C(C)=O)c2nn[nH]c(=O)c12	0.42
c1ccc(-c2ccc(-c3ccc(-c4ccccc4)cc3)cc2)cc1	1
O=Cc1ccc(N(c2ccc(C=O)cc2)c2ccc(-c3ccc4c(c3)C(=O)c3ccccc3C4=O)cc2)cc1	2.01

(1) CN(C)c1ccc(C2=Nc3scc(-c4ccc(C#N)cc4)[n+]3[B-](F)(F)O2)cc1
(2) Nc1cccc2c1C(=O)NC2=O
Compare reported fluorescence lifetime values for 1 and 2 . Which is lower? The response must carry the label of the picked entry. 1

---

test: solvent given as SMILES; conditions: in C1CCCCC1
readout: fluorescence lifetime (ns)

CN(C)c1ccc(N(C)C)cc1	6.1

(I) Cc1ccccc1-c1ccccc1C
(II) COc1c2ccccc2c(OC)c2c1c1c(C)ccc(OC)c1n2C
Choose between I and II : whose measured fluorescence lifetime value is numerically larger? The response must carry the label of the picked entry. II
(II: 17.6 ns, I: 2.5 ns)

---

Reported fluorescence lifetime values are given for each entry in this list.
experiment: solvent given as SMILES; details: in CN(C)C=O
// units = ns; emit number, no label

Endpoint output: fluorescence lifetime of CCn1c2ccsc2c2c3nsnc3c3c4sccc4n(CC)c3c21 . Value? 22.1

Endpoint output: fluorescence lifetime of COc1cc2[nH]c3c(c2cc1OCC(=O)O)CCCC3=O . Value? 1.92

---

experiment: solvent given as SMILES; conditions: in Cc1ccccc1
readout: fluorescence lifetime (ns)
// units = ns; emit number, no label

# example entries with known answers
c1ccc(N(c2ccccc2)c2c3ccccc3cc3ccccc23)cc1	21
CCCCCCCCCCCCOc1ccc(C#Cc2ccc(C#Cc3ccc(OCCCCCCCCCCCC)c(OCCCCCCCCCCCC)c3)c3nc4c5ccccc5c5ccccc5c4nc23)cc1OCCCCCCCCCCCC	7.13
CCC1=C(C)C2=C(C)c3c(C)c(CC)c(C)n3[B-](F)(F)[N+]2=C1C	5.07
CCCCCCC(CCCCCC)N1C(=O)c2cccc3c(-c4ccc(-c5ccc(OC)cc5)cc4)ccc(c23)C1=O	1.4
COc1ccc(-c2cc(C)nc(-c3ccc(-n4c5ccccc5c5ccccc54)cc3)n2)cc1	1.21

Endpoint output: fluorescence lifetime of CCCCCCCCCCCCCCCCOc1cc(C#Cc2ccc3ccccc3c2-c2c(C#Cc3cc(OCCCCCCCCCCCCCCCC)c(C#Cc4ccc(C=C(C#N)C#N)cc4)cc3OCCCCCCCCCCCCCCCC)ccc3ccccc23)c(OCCCCCCCCCCCCCCCC)cc1C#Cc1ccc(C=C(C#N)C#N)cc1 . Value? 2.59

Endpoint output: fluorescence lifetime of COc1ccc2c(c1)c1cc(OC)ccc1n2-c1cccc(-n2c3ccc(OC)cc3c3cc(OC)ccc32)c1C#N . Value? 13

Endpoint output: fluorescence lifetime of CC1=[N+]2C(=C(c3ccc(C#N)cc3)c3ccc(C)n3[B-]2(F)F)C=C1 . Value? 0.55
